Value source: PubChem BioAssay AID624281

- assay-notes: Light production inducers in absence of autoinducers, V. cholerae DH231, dose response (AID 624281)
- measurement-context: V. cholerae DH231 (ΔcqsS ΔluxS) lux bioluminescence, 6 h; at 35 µM (top of the series)
Parameter: luminescence activation. Scope: all listed entries.
Just the number please, in %, no unit attached.

Below, each entry is followed by its recorded luminescence activation result.
- compound: "COc1ccccc1NC(=O)COC(=O)c1oc2ccccc2c1C"
  recorded-endpoint: "luminescence activation"
  measured-number: -6.24
- compound: "O=c1ncn(-c2cccc(Cl)c2)c2ccccc12"
  recorded-endpoint: "luminescence activation"
  measured-number: 14.1
- compound: "CCCn1nnnc1NCc1ccccc1Cl"
  recorded-endpoint: "luminescence activation"
  measured-number: -4.59
- compound: "CCn1nnnc1NCc1ccc(N2CCCC2)cc1"
  recorded-endpoint: "luminescence activation"
  measured-number: -52.4
- compound: "COc1ccc(Cl)cc1NC(=O)COC(=O)c1ccc(C)o1"
  recorded-endpoint: "luminescence activation"
  measured-number: -3.04

`COc1ccccc1NC(=O)COC(=O)c1ccc(C)cc1` yielded luminescence activation of 8.61

Entry `Cc1c(Cl)cccc1-n1cnc(=O)c2ccccc21` — recorded luminescence activation = -4.11

Entry under test: `Cc1ccc(OCCNC(=O)c2cccc(C)c2)cc1` . Its luminescence activation was -33.1

Value of measured luminescence activation for the entry CCC(C)NC(=O)Cc1ccc(-c2ccccc2)cc1 (configuration not stated) : -15.3

# luminescence activation (compound: `O=C(Cc1ccc(-c2ccccc2)cc1)NC1CCCC1` ) is -8.42

Input `CCCn1nnnc1NCc1ccc(N2CCCC2)cc1` . Output luminescence activation: -14

Reported luminescence activation of `CCn1c(CC(=O)Nc2cccc(Cl)c2Cl)nnc1SCCOc1ccc(OC)cc1` : -63.2

Record `CCCn1nnnc1NCc1ccc(C(C)C)cc1` . Reported luminescence activation: -30.3

// sample `Cc1ccc(CC(=O)NC2CCCC2)cc1` , its luminescence activation was 0.807

luminescence activation measured on `CCn1nnc(NCc2ccc(C)cc2)n1` = 4.08

Documented luminescence activation of `CCCn1nnnc1NCc1ccc(N(CC)CC)cc1` : -19.9

// luminescence activation value for `CCOc1ccc(Nc2ccc3nonc3c2[N+](=O)[O-])cc1` : -40.9
